Source listed as ChEMBL document CHEMBL1177777.

system: Candida tropicalis; assay: Antifungal activity against Candida tropicalis TIMM 0313 after 24 hrs by microdilution method; format: functional; settings: TIMM 0313, 24 h
Below, each of the compounds is paired with its reported MIC value.

Past entries and their recorded results:
# smiles_representation, MIC
measured = [
    ("OC(Cn1cncn1)(Cn1cncn1)c1ccc(F)cc1F", "0.25 µg/mL"),
    ("Cc1c(-c2ccccc2)c(N2CC[C@H](N(C)C)C2)n2c(nc3ccccc32)c1C#N", "0.5 µg/mL"),
]

Note MIC for the compound shown: CCc1c(C)c(C#N)c2nc3ccccc3n2c1NCCN(CC)CC
> 128 µg/mL

Note MIC for the compound shown: CCc1c(C)c(C#N)c2nc3ccccc3n2c1N1CC[C@@H](N(C)C)C1
64 µg/mL

Note MIC for the compound shown: CCc1c(C)c(C#N)c2nc3ccccc3n2c1NCCCN(C)C
> 128 µg/mL

Note MIC for the compound shown: CC(=O)OCCc1c(C)c(C#N)c2nc3ccccc3n2c1N1CC[C@H](N(C)C)C1
16 µg/mL

Note MIC for the compound shown: CCc1c(-c2ccccc2)c(C#N)c2nc3ccccc3n2c1N1CC[C@H](N(C)C)C1
> 128 µg/mL

Note MIC for the compound shown: CCc1c(C)c(C#N)c2nc3ccccc3n2c1N1CCN(C)CC1
> 32 µg/mL

Note MIC for the compound shown: CCCNc1c(CC)c(C)c(C#N)c2nc3ccccc3n12
> 128 µg/mL

Note MIC for the compound shown: CCc1c(C)c(C#N)c2nc3ccccc3n2c1N1CCC(N(C)C)CC1
> 128 µg/mL

Note MIC for the compound shown: CCc1c(C)c(C(N)=O)c2nc3ccccc3n2c1NCCN(C)CC
> 128 µg/mL

Note MIC for the compound shown: CCCCc1c(C)c(C#N)c2nc3ccccc3n2c1N1CC[C@H](N(C)C)C1
0.5 µg/mL

Note MIC for the compound shown: Cc1cc(N2CC[C@H](N(C)C)C2)n2c(nc3ccccc32)c1C#N
> 128 µg/mL

Note MIC for the compound shown: CCc1c(C)c(C#N)c2nc3ccccc3n2c1NCCN
> 128 µg/mL
